Measurement Description: Equilibrium solubility in polysorbate 80 / PEG 300 mixtures (72 hours, HPLC)
Type: physicochemical
Run Parameters: polysorbate 80 / PEG 300 mixture, organic solvent or mixture, thermodynamic from solid, 50% PEG 300, 50% polysorbate 80; equilibrated 72 hours
Recorded Endpoint: solubility at 72 h (mg/mL)
One number for each entry, in mg/mL.

Quick check: solubility at 72 h of CC(C)c1cc(-c2n[nH]c(=O)n2-c2ccc3c(ccn3C)c2)c(O)cc1O [Compound 1] ? 96.2

* * *

Measurement Description: Equilibrium solubility in polysorbate 80 / PEG 300 mixtures (72 hours, HPLC)
Type: physicochemical
Run Parameters: polysorbate 80 / PEG 300 mixture, organic solvent or mixture, thermodynamic from solid, 40% PEG 300, 60% polysorbate 80; equilibrated 72 hours
Recorded Endpoint: solubility at 72 h (mg/mL)
One number for each entry, in mg/mL.

Quick check: solubility at 72 h of CC(C)c1cc(-c2n[nH]c(=O)n2-c2ccc3c(ccn3C)c2)c(O)cc1O ? 76.1

Cited source for all entries: patent US20150150851A1
